Target or system Serine/threonine-protein kinase PLK2 (Homo sapiens, UniProt Q9NYY3); metric IC50; compiled from varied reports.

Some compounds with known IC50 results, for comparison:
compound=O=C1Nc2ccccc2/C1=C\c1ccc2[nH]nnc2c1 result="5 to 50 µM"
compound=O=C1Nc2ccc(F)cc2/C1=C\c1ccc2cn[nH]c2c1 result="< 5 µM"
compound="O=C1Nc2ccccc2[C@@]12C[C@@H]2c1ccc2cn[nH]c2c1 (racemic)" result="> 50 µM"
compound=COc1ncc2sc3c(c2n1)SCCNC3=O result="> 100 µM"
compound=Nc1cccc2c1NC(=O)/C2=C/c1ccc2cn[nH]c2c1 result="< 5 µM"

Turning now to a further compound:
The reported IC50 of the compound O=C1Nc2c(cccc2C(F)(F)F)C1=Cc1ccc2cn[nH]c2c1 (mixture of isomers) was > 50 µM
